Reference for the values: patent US9326506B2

System: rice
Protocol text: Low temperature assay on rice seedlings
Assay type: in vivo
Measurement parameters: 0.1 mg/l, 5 °C, 6 days
Observation type: Weight of root (g)

INSERT INTO results (compound, endpoint_result) VALUES
  ('CC(C)(O)CC[C@@H](O)[C@](C)(O)[C@H]1CC[C@@]2(O)[C@@H]3CC(=O)[C@@H]4C[C@@H](O)[C@@H](O)C[C@]4(C)[C@H]3CC[C@]12C', 3.2),
  ('CC(C)[C@H](C)[C@@H](O)[C@H](O)[C@@H](C)[C@H]1CCC2C3CC(=O)C4C[C@H](O)CC[C@]4(C)C3CC[C@@]21C (stereo partly drawn)', 3.1),
  ('CC(C)[C@H](C)[C@@H](O)[C@H](O)[C@@H](C)[C@H]1CCC2C3COC(=O)C4C[C@H](O)[C@H](O)C[C@]4(C)C3CC[C@@]21C (stereo partly drawn)', 3.2);

----------
Tested on: rice
Protocol text: Low temperature assay on rice seedlings
Assay type: in vivo
Measurement parameters: 0.001 mg/l, 1 °C, 3 days
// reported Area of leaf for each item listed
Observation type: Area of leaf (cm^2)

INSERT INTO results (compound, observation_type, value_units, endpoint_result) VALUES
  ('CC(C)C[C@@H](O)[C@H](O)[C@@H](C)[C@H]1CCC2C3CC(=O)C4C[C@H](O)[C@H](O)C[C@]4(C)C3CC[C@@]21C (stereo partly drawn)', 'Area of leaf', 'cm^2', 10.1),
  ('CC(C)[C@H](C)[C@@H](O)[C@H](O)[C@@H](C)[C@H]1CCC2C3COC(=O)C4C[C@H](O)[C@H](O)C[C@]4(C)C3CC[C@@]21C (stereo partly drawn)', 'Area of leaf', 'cm^2', 10.1),
  ('CC(C)[C@H](C)[C@@H](O)[C@H](O)[C@@H](C)[C@H]1CCC2C3CC(=O)C4C[C@H](O)CC[C@]4(C)C3CC[C@@]21C (stereo partly drawn)', 'Area of leaf', 'cm^2', 10);

----------
We begin with a simple list: items and their reported Weight of root.
Test system: rice
Protocol text: Low temperature assay on rice seedlings
Assay type: in vivo
Measurement parameters: 1 mg/l, 3 °C, 6 days
Observation type: Weight of root (g)

INSERT INTO results (molecule, observation_type, endpoint_result) VALUES
  ('C=C(C(C)C)[C@@H](O)[C@H](O)[C@@H](C)[C@H]1CCC2C3COC(=O)C4C[C@H](O)[C@H](O)C[C@]4(C)C3CC[C@@]21C (stereo partly drawn)', 'Weight of root', 2.6),
  ('CC(C)C[C@@H](O)[C@H](O)[C@@H](C)[C@H]1CCC2C3CC(=O)C4C[C@H](O)[C@H](O)C[C@]4(C)C3CC[C@@]21C (stereo partly drawn)', 'Weight of root', 2.6),
  ('CC(C)[C@H](C)[C@@H](O)[C@H](O)[C@@H](C)[C@H]1CCC2C3COC(=O)C4C[C@H](O)[C@H](O)C[C@]4(C)C3CC[C@@]21C (stereo partly drawn)', 'Weight of root', 2.6),
  ('CC(C)(O)CC[C@@H](O)[C@](C)(O)[C@H]1CC[C@@]2(O)[C@@H]3CC(=O)[C@@H]4C[C@@H](O)[C@@H](O)C[C@]4(C)[C@H]3CC[C@]12C', 'Weight of root', 2.6),
  ('CC[C@@H](C(C)C)[C@@H](O)[C@H](O)[C@@H](C)[C@H]1CCC2C3COC(=O)C4C[C@H](O)[C@H](O)C[C@]4(C)C3CC[C@@]21C (stereo partly drawn)', 'Weight of root', 2.6),
  ('CC(C)[C@H](C)[C@@H](O)[C@H](O)[C@@H](C)[C@H]1CCC2C3CC(=O)C4C[C@H](O)CC[C@]4(C)C3CC[C@@]21C (stereo partly drawn)', 'Weight of root', 2.6);
